The reported measurements were obtained from patent US20240309103A1.

# STUDY_TARGET: T1, human NPR1 extracellular domain expressed with a C-terminal mouse IgG2a (hNPR1-mFc) (human)
# T1 construct: also called hNPR1-Fc; human NPR1 dimer
# T1 chain: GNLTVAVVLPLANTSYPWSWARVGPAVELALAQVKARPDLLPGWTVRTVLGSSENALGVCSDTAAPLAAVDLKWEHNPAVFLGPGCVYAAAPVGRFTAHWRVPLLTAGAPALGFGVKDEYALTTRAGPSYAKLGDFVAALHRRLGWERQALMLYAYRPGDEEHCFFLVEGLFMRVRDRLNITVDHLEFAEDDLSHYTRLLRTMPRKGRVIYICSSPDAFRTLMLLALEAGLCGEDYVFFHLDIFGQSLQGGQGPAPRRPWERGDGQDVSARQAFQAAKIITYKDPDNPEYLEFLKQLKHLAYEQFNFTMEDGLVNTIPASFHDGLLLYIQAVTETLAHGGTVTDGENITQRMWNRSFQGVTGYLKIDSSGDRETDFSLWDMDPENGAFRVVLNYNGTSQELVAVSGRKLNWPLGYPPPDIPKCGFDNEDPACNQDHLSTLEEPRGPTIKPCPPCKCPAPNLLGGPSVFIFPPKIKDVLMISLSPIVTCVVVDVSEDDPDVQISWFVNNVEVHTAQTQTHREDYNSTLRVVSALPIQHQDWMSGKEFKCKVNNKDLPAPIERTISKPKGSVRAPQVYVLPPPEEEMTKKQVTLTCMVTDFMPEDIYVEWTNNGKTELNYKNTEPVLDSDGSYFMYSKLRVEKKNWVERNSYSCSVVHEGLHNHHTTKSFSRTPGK
# PROTOCOL_DETAILS: SPR, mAb captured, 25 C

{"BINDER": "mAb25497 (antibody, V domains shown) VH: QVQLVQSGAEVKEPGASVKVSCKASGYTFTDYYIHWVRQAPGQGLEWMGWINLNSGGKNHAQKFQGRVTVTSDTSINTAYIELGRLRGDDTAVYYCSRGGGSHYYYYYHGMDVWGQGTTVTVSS VL: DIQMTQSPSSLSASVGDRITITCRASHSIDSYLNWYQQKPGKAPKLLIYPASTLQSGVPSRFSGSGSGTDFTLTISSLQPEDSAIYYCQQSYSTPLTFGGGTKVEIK", "Kd (nM)": 0.238}
{"BINDER": "mAb25479 (antibody, V domains shown) VH: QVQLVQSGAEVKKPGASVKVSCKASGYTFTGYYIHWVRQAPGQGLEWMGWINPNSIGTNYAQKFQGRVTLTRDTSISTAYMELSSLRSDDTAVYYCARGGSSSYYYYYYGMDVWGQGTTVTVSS VL: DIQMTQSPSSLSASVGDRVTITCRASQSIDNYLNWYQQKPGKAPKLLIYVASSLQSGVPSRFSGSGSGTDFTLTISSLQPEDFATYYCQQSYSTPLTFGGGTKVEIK", "Kd (nM)": 22.4}
{"BINDER": "mAb25508 (antibody, V domains shown) VH: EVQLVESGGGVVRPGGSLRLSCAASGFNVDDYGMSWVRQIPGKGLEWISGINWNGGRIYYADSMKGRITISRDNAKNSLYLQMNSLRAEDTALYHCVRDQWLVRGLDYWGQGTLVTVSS VL: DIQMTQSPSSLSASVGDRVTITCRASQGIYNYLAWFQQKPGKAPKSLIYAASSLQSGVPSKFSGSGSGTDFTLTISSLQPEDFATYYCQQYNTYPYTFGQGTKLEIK", "Kd (nM)": 0.0868}
